- Test system: Nanoluciferase (engineered Oplophorus gracilirostris luciferase)
- PROTOCOL: Primary Nanoluciferase (NLuc) qHTS assay for identification of artifact compounds. (AID 1845222);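 further: NLuc secreted into diluted conditioned medium of S16 cells; 0% = DMSO and -100% = no enzyme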
- CONDITIONS: NLuc-conditioned medium, Nano-Glo luminescence, 5 min; series mostly up to 54.1 µM
Active and inactive are the calls of the source. The call rests on the fitted dose curve; in most records, active means well fitted inhibition curve with a large enough effect; inconclusive means small, poorly fitted or top-dose-only effect; inactive means flat fitted curve, though single readings scatter.
READOUT_LABEL: activity, negative = inhibition

INSERT INTO results (compound, reported_result) VALUES
  ('CC(C)(O)/C=C/C(=O)[C@](C)(O)[C@H]1[C@H](O)C[C@@]2(C)[C@@H]3CC=C4[C@@H](C[C@H](O)C(=O)C4(C)C)[C@]3(C)C(=O)C[C@]12C', 'inactive'),
  ('COc1ccc(C23CCC(=O)C=C2N(C)CC3)cc1OC (centres undefined)', 'inactive'),
  ('COc1ccc(C(C)(C)C)cc1CN[C@H]1C2CCN(CC2)[C@H]1C(c1ccccc1)c1ccccc1', 'inactive'),
  ('C[C@@]1(CO)[C@H](O)CC[C@@]2(C)[C@H]1CC[C@H]1C[C@@H]3C[C@@]12CC[C@]3(O)CO', 'inactive');

* * *

- PROTOCOL: qHTS for Inhibitors of the Functional Ribonucleoprotein Complex (vRNP) of Lymphocytic Choriomeningitis Arenaviruses (LCMV): Viability assay - alamar blue signal for LCMV Primary Screen (AID 1347085); further: on the % scale 0 is the no-effect control and ±100 the full control effect; nearly all actives have a fitted effect of over 80% in size
- CONDITIONS: alamar blue viability counter-screen, LCMV vRNP screen cells; series mostly up to 57.5 µM
Records with an inconclusive call do not appear. Active and inactive are the calls of the source. Calls follow the shape of the full dose curve; tested in HEK293 reporter line.
READOUT_LABEL: outcome

INSERT INTO assay_data (compound, reported_result) VALUES
  ('CC(COc1ccc(/C=C/c2ccccc2)cc1)[N+](C)(C)C (stereo unspecified)', 'inactive'),
  ('C=C1CCC2C(C)(C)[C@@H](O)CC[C@@]2(C)[C@@H]1COc1ccc2ccc(=O)oc2c1 (stereo partly specified)', 'inactive'),
  ('CC1=CC(=O)[C@H]2C[C@@H]1C2(C)C', 'inactive'),
  ('CC(=O)c1ccc(-c2cccs2)s1', 'inactive'),
  ('Cc1cc(CS(=O)(=O)c2ccccc2)cc(OCc2ccc(CN3CCC[C@H]3CO)cc2)c1', 'inactive');

Let's switch to this compound now.
Per the record, "N#C/C(=C\c1ccc(O)c(O)c1)C(=O)c1ccc(O)c(O)c1" has outcome of inactive

* * *

- Test system: Hek293T
- PROTOCOL: Primary qHTS to identify gynecologic anti-cancer compounds using libraries of approved drugs and bioactive compounds (AID 1345084); further: nearly all actives have a fitted effect of over 55% in size
- CONDITIONS: Gynecologic cancer cell panel viability, ATPlite luminescence, 48 h, control line for the selectivity index; series mostly up to 57.5 µM
Results filed as inconclusive are left out. Activity calls are given as the source filed them. Calls follow the shape of the dose curve; as a rule, active = well fitted cell-killing curve with a large enough effect; inconclusive = small, poorly fitted or top-dose-only effect, or effect the other way; inactive = flat fitted curve, though single readings scatter.
Response enum: active, inactive

INSERT INTO measurements (molecule, label) VALUES
  ('CN(Cc1cccc(-c2ccncc2)c1)C(=O)Oc1ccc(-c2ccc(C(N)=O)cc2)cc1', 'inactive'),
  ('C=CCN1CCC2(C)c3cc(O)ccc3C[C@H]1[C@H]2C', 'inactive'),
  ('COC1CC(O[C@H]2CC[C@@]3(C)C(CCC4C3CC[C@]3(C)C(C5=CC(=O)OC5)CCC43O)C2)OC(C)C1OC1OC(COC2OC(CO)C(O)C(O)C2O)C(O)C(O)C1O (stereo partly drawn)', 'active'),
  ('CC1CCCC(O)CCC/C=C/c2cc(O)cc(O)c2C(=O)O1 (stereo not drawn)', 'inactive'),
  ('C[C@@H]1C[C@@H](O)[C@]2(O)O[C@@H]3C[C@@]4(C=O)C(CC[C@@H]5C4CC[C@]4(C)[C@@](O)(C6=CC(=O)OC6)CC[C@]54O)C[C@H]3OC2O1 (stereo partly drawn)', 'active');

Query :: Test call, this molecule: COc1ccc(C23CCC(=O)C=C2N(C)CC3)cc1OC (stereo not drawn)
Result :: inactive

Query :: Test call, this molecule: "COc1ccc(C(C)(C)C)cc1CN[C@H]1C2CCN(CC2)[C@H]1C(c1ccccc1)c1ccccc1"
Result :: inactive

Query :: Test call, this molecule: "C[N@@+]1(CC2CC2)CC[C@]23c4c5ccc(O)c4O[C@H]2C(=O)CC[C@@]3(O)[C@H]1C5"
Result :: inactive

* * *

- Test system: JEG-3
- PROTOCOL: Primary qHTS to identify gynecologic anti-cancer compounds using libraries of approved drugs and bioactive compounds (AID 1345084); further: nearly all actives have a fitted effect of over 55% in size; on activity change, negative = cytotoxicity: on the % scale 0 is the no-effect control and ±100 the full control effect
- CONDITIONS: Gynecologic cancer cell panel viability, ATPlite luminescence, 48 h; series mostly up to 57.5 µM
Records with an inconclusive call do not appear. The source made the active and inactive calls. The call rests on the fitted dose curve; in most records, active means well fitted cell-killing curve with a large enough effect; inconclusive means small, poorly fitted or top-dose-only effect, or effect the other way; inactive means flat fitted curve, though single readings scatter.
READOUT_LABEL: activity change, negative = cytotoxicity

INSERT INTO assay_data (compound, reported_result) VALUES
  ('CN1C[C@@H]2CN(c3ccc(-c4ccccc4)nn3)C[C@@H]2C1', 'inactive'),
  ('C=C(C)[C@@H]1[C@H]2OC(=O)[C@H]1[C@]1(O)C[C@H]3O[C@]34C(=O)O[C@H]2[C@]14C', 'inactive'),
  ('C[C@]12CC[C@H](O)C[C@@H]1CC[C@@H]1[C@@H]2CC[C@]2(C)C(=O)CC[C@@H]12', 'inactive'),
  ('CC[C@@H]1/C=C/C=C/C[C@H](C)C(O)[C@](C)(O)C(=O)[C@H](C)C(O)[C@H](C)C(=O)[C@H](C)[C@@H](O)[C@H](C)/C=C/C(=O)O[C@H]2[C@@H](C)[C@@H](CC1)O[C@]1(O[C@H](C[C@H](C)O)[C@H](C)CC1=O)[C@@H]2C (some centres undefined)', '22.8% [at 11.6 µM] (inactive)');

* * *

- PROTOCOL: P-glycoprotein substrates identified in KB-3-1 adenocarcinoma cell line, qHTS therapeutic library screen (AID 1346986); further: nearly all actives have a fitted effect of over 60% in size;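 further: potency means the concentration at half of the fitted maximal effect; potency is for cytotoxicity meaning loss of cell viability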
- CONDITIONS: KB-3-1 parental cells viability, CellTiter-Glo, 72 h; series mostly up to 93.4 µM
- Protocol: The ATP-binding cassette transporters P-glycoprotein (P-gp) is known to limit brain penetration of many chemotherapy drugs. […] All cell lines were plated into 1536-well plates at 500 cells/well in 5 uL media. […] CellTiter-Glo reagent (Promega) was dispensed into the wells, incubated for 5 min and luminescence was read on a ViewLux instrument (Perkin-Elmer). […]
Inconclusive results are not listed. Activity calls are given as the source filed them. Calls follow the shape of the dose curve; as a rule, active = well fitted inhibition curve with a large enough effect; inconclusive = small, poorly fitted or top-dose-only effect; inactive = no such curve, though single readings can be large or run the other way.
READOUT_LABEL: Potency

Before answering, review these 5 worked examples.
INSERT INTO assay_data (compound, reported_result) VALUES
  ('C[C@]12CC[C@H]3[C@@H](CCC4=C/C(=N/OCC(=O)O)CC[C@@]43C)[C@@H]1CC[C@@H]2O', 'inactive'),
  ('O=C(NCCCNc1nc(Nc2ccc(N3CCOCC3)cc2)ncc1C1CC1)C1CCC1', '10.3 µM (active)'),
  ('CCCN(CCC)[C@@H]1CCc2ccc3[nH]c(C#N)cc3c2C1', 'inactive'),
  ('Nc1ccn(CC(CO)OCP(=O)(O)O)c(=O)n1 (stereo not drawn)', 'inactive'),
  ('CCC(C)(O)C1(C(=O)O)COC(=O)C1 (stereo not drawn)', 'inactive');

Batch of 6 compounds: report Potency for each.
1. Cc1cccc([C@H](C)c2cnc[nH]2)c1C
2. C[C@]12CC[C@H](O)C[C@@H]1CC[C@@H]1[C@@H]2CC[C@]2(C)C(=O)CC[C@@H]12
3. C=C(CO)C(=O)O[C@H]1CC(=C)[C@@H]2C[C@H](O)C(=C)[C@@H]2[C@H]2OC(=O)C(=C)[C@@H]21
4. C=C(C)[C@@]12O[C@@H]1[C@@]1(C)C(=C[C@H]2O)CC[C@@H](O)[C@@H]1C
5. CCCN(CCC)CCc1ccc(OC)c(OCCc2ccccc2)c1
6. COc1cc2c(cc1F)C(c1ccccc1Cl)=Nc1c(n[nH]c1C)N2

Result ::
1. inactive
2. inactive
3. inactive
4. inactive
5. inactive
6. 2.06 µM (active)

* * *

- System: CASKI
- PROTOCOL: Primary qHTS to identify gynecologic anti-cancer compounds using libraries of approved drugs and bioactive compounds (AID 1345084); further: nearly all actives have a fitted effect of over 55% in size
- CONDITIONS: Gynecologic cancer cell panel viability, ATPlite luminescence, 48 h; series mostly up to 57.5 µM
Records with an inconclusive call do not appear. Activity calls are given as the source filed them. The call rests on the fitted dose curve; in most records, active means well fitted cell-killing curve with a large enough effect; inconclusive means small, poorly fitted or top-dose-only effect, or effect the other way; inactive means flat fitted curve, though single readings scatter.
READOUT_LABEL: outcome

INSERT INTO assay_data (compound, reported_result) VALUES
  ('CN(C)[C@@H]1C(=O)C(C(N)=O)=C(O)[C@@]2(O)C(=O)C3=C(O)c4c(O)ccc(Cl)c4[C@@](C)(O)C3C[C@@H]12 (stereo partly drawn)', 'inactive'),
  ('Cc1c(N[C@@H](c2nnc(-c3ccc(C#N)cc3)o2)[C@H](C)O)ccc(C#N)c1Cl', 'inactive'),
  ('Cc1ccccc1CN1CCC(N2CCC(n3c(=O)[nH]c4ccccc43)CC2)CC1', 'inactive');

* * *

Please respond with reported activity for every item in the list.
- TEST_TARGET: Phenylethanolamine N-methyltransferase (Homo sapiens) (UniProt P11086)
- Sequence (P11086 whole entry, looked up): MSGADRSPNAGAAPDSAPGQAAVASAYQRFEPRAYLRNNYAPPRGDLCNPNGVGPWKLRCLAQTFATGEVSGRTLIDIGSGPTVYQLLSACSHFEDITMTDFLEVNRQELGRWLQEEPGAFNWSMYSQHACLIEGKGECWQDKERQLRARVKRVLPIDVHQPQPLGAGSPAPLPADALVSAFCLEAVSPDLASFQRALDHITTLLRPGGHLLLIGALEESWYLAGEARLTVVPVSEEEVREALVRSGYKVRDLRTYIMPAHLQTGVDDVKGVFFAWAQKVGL
- PROTOCOL: Confirmatory Screen for Target Class Profiling of Small Molecule Inhibitors of Methyltransferases (AID 1745852)
- CONDITIONS: MTase-Glo luminescence, SAH detection, recombinant enzyme; measured here: PNMT max response; stronger effect = lower value
Numbers only, in %.

Batch of 4 molecules: report activity for each.
1. O=C1Nc2ccc3ncsc3c2/C1=C/c1cnc[nH]1
2. C[C@H]1O[C@@H](O[C@H]2CC[C@]3(CO)C4CC[C@]5(C)[C@@H](C6=CC(=O)OC6)CC[C@]5(O)[C@@H]4CC[C@H]3C2)[C@H](O)[C@H](O)[C@@H]1O[C@@H]1O[C@H](CO)[C@@H](O)[C@H](O)[C@H]1O (some centres undefined)
3. CCCCOC(=O)c1ccnc2cc(C(OCCN3CCCCC3)c3ccccc3Cl)sc12 (centres undefined)
4. COc1cc(N2CCN(C)CC2)ccc1N

Result ::
1: -10; 2: -1.28; 3: -16.1; 4: -33.9

Batch of 5 molecules: report activity for each.
1. Fc1cc(F)c2c(c1)C1C=CCC1C(c1cccnc1)N2 (centres undefined)
2. CC1Oc2cc3c(-c4c(O)cc(O)c5c(O)c6c(cc45)OC(C)C(C)C6=O)c(O)cc(O)c3c(O)c2C(=O)C1C (centres undefined)
3. CN(C)c1cc2c(cc1Sc1nc3c(N)nccc3n1CCNCC(C)(C)C)OCO2
4. C[C@H]1CCC[C@H](O)CCC/C=C/c2cc(O)cc(O)c2C(=O)O1
5. Oc1ccc2c(c1)C13CCCC[C@H]1[C@@H](C2)N(CC1CCC1)CC3

Result ::
1. -0.468
2. -60.9
3. -0.0762
4. -98.1
5. -7.17
